molecular target: human Claudin18.2 (human); experiment: cell-based or functional assay

binder | CDC EC50 (µg/mL)
273C10E5 (antibody, V domains shown) VH: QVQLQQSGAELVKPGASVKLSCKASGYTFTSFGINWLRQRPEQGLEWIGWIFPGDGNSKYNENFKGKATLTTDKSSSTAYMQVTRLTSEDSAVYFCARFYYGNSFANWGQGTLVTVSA VL: DIVMTQSPSSLTVTAGEKVTMSCKSSQSLLNSGNQKNYLTWYQQKPGQPPKLLIYWAATRESGVPDRFAGSGSGTDFTLTISSVQAEDLAVYYCQNDYFYPFTFGAGTKLELK | 2.41
242H12D6 (antibody, V domains shown) VH: QAYLQQSGAELVRSGASVKMSCKASGYTFTSHNMHWVKQTPGQGLEWIGYIYPGNGGTNYNQKFKGKATLTADTSSSTAYMQINSLTSEDSAVYFCTRDYYGNSFAYWGQGTLVTVSA VL: DIVMTQSPSSLTEKAGERVSMSCKSSQSLFNSGNQKNYLTWYQQKPGQPPKLLIYWASTRESGVPDRFTGSGSGTDFTLTISSVQAEDLAVYYCQNDYRYPFTFGAGTKLELK | 1.26
253E4F7 (antibody, V domains shown) VH: EIQLQQSGPELMKPGASVKMSCKASGYSFTSYYIHWVKQSHGKSLEWIGYIDPFNGGTRYNQKFEGKATLTVDKSSTTAYMHLSSLTSEDSTVYYCASLRFLAYWGQGTLVTVSA VL: DIVMTQSPSSLTVTAGEKVTMTCKSSQSLLNSGNQKNYLTWYQQKPGQPPKVLISRASTRQSGVPDRFTGSGSGTDFTLTISSVQAEDLAVYYCQNDYSYPLTFGAGTKLELK | 1.06
